# pKd values compiled below
Molecular target: SARS-COV-2 RBD extracellular domain expressed with a C-terminal myc-myc-hexahistidine tag (SARS-CoV-2)
Test: SPR (Biacore), mAb captured by anti-human Fc, RBD-mmH in solution, 25 C
In simple prose, pKd is minus the logarithm base ten of a concentration in moles per litre.

Below, each entry is followed by its recorded pKd result.
# binder, pKd
measured = [
    ("mAb15162 (antibody, V domains shown) VH: EVQLVETGGGLIQPGGSLRLSCAASEFIVSRNYMSWVRQAPGKGLEWVSLIYSGGSTYYADSVKGRFTISRDNSKNILYLQMNSLRAEDTAVYYCARDRGGISDYWGQGTLVTVSS VL: DIQMTQSPSSLSASVGDRVTITCQASQDINKYLNWFQQKPGKAPKLLIYDASNLETGVPSRFSGSGSGTDFTFTISSLQPEDIATYYCQQYDNLPRTFGQGTKLEIKR", 8.14),
    ("mAb14286 (antibody, V domains shown) VH: QVQLVQSGAEVKKPGASVKVSCKASGYTFTDYFIHWVRQAPGQGLEWMGWINPTSGGTNYAQKFRGRVTMTRDTSISTAYVELSRLRSDDTALYYCARDLPFYSDTKQFDYWGQGTLVTVSS VL: QSALTQPASVSGYPGQSITISCTGTSSDVGGYNYVSWYQQHPGKAPKLMIFDVSNRPSGVSNRFSGSKSGNTASLTFSGLQAEDEADYYCSSYTSSSTLVFGGGTKLTVLG", 8.49),
    ("mAb14258 (antibody, V domains shown) VH: QLQLQESGPGLVKPSETLSLICTGSGDSISSSHYYWGWIRQPPGKGLEWIGSTYFSGSTYYNPSLKSRVSISVDTSKNQVSLKLISVTAADTAVYYCAREMGATLGDYWGPGTLVTVSS VL: QSVLTQPPSASGTPGQRVTISCSGSSSNIGNNYVYWYQQFPGTTPRLLIYRNNERPSGVPDRFSGSKSGTSASLVISGLRSEDEADYYCAAWDDSLSAHYVFGTGTKVTVLG", 9.07),
    ("mAb14255 (antibody, V domains shown) VH: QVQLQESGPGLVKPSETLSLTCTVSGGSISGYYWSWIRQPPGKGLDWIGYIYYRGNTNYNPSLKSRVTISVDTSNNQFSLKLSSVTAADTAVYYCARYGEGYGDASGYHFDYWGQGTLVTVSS VL: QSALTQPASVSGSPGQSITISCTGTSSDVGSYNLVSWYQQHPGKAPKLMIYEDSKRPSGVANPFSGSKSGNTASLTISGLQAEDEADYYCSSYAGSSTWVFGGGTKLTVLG", 8.55),
]

We next turn to a different binder, shown below.
Request: Provide one value: measured pKd of mAb14230 (antibody, V domains shown) VH: EVQLVESGGGLIQPGRSLRLSCAASGFTFDDYAMHWVRQAPGKGLEWVSGISWNSVSIDYADSVKGRFTISRDNAKNSLYLQMTSLTVEDTALYYCAKAFGYETLTGSDYFAYWGPGTLVTVSS VL: EIVLTQSPGTLSLSPGERATLSCRASQTVISTYLAWYQQKPGQSPRLLIYGASSRATGIPDRFSGSGSGTDFTLTISRLEPEDFAVYYCQQYGSSPQLTFGGGTKVEIKR
Response: 8.12
